The reader will find reported cytotoxicity at 10 µM values listed item by item below.
# Method description: Toxicity liver stage against HepG2, at 10uM
# Assay type: cell-based
# Design: test concentration 10 uM, cell line HepG2-A16-CD81EGFP
# Run parameters: human, HepG2-A16-CD81EGFP cells; read-out: INHIBITION
Dear colleague, please return just the value in %, with no unit written.

| Compound | cytotoxicity at 10 µM, % |
| --- | --- |
| CN(CC(=O)N1CCCC1c1cnn(C)c1)c1ccc(Cl)cn1 (centres undefined) | -6.14 |
| CC1(c2[nH]ncc2C(N)=O)CCN(S(=O)(=O)c2ccccc2)CC1 | -1.29 |
| OCC1CN(Cc2nc(C(F)(F)F)cs2)c2ccccc2O1 (centres undefined) | 3.97 |
| CCn1ccnc1CN1CCN(C(C)C(=O)NC2CCCC2)CC1 (centres undefined) | -4.86 |
| COCCNC(=O)C(C)S(=O)(=O)c1ccc(OC)cc1 (centres undefined) | 4.4 |
| Cc1noc(C)c1C(=O)N1C[C@@H]2CN(Cc3cccnc3)CCO[C@@H]2C1 | 5.75 |
| Cc1cccc2nc(CSCc3nnnn3C(C)C)cn12 | 1.24 |
| CN(CC(=O)N1CC(C)(C)[C@](O)(C2CC2)C1)Cc1ccncc1 | -44.1 |

Look up cytotoxicity at 10 µM of `COc1cccc(CNCc2nc3ccccc3c(=O)[nH]2)c1` and report it.
1.26

Look up cytotoxicity at 10 µM of `O=C(c1cccc2cccnc12)N1CCCN(c2cccnn2)CC1` and report it.
-3.2

Look up cytotoxicity at 10 µM of Cc1csc(N2CCCN(C(=O)C(C)n3ccnc3)CC2)n1 (centres undefined) and report it.
-9.46

Look up cytotoxicity at 10 µM of `Cc1csc(Nc2cc(C3CN(c4ccncn4)C3)nc(C)n2)n1` and report it.
11.6

Look up cytotoxicity at 10 µM of `O=C(Nc1ccc2c(ccn2CCN2CCOCC2)c1)c1ccccn1` and report it.
0.425

Look up cytotoxicity at 10 µM of `C[C@H]1C[C@@H]2CCN(C(=O)c3ccncn3)C[C@H]2O1` and report it.
-18.4

Look up cytotoxicity at 10 µM of `CS(=O)(=O)NCCCNC(=O)c1cccnc1O` and report it.
-17.7

Look up cytotoxicity at 10 µM of CCc1nc(CNC(C)(CO)C2CCCCC2)no1 (centres undefined) and report it.
-13.1

Look up cytotoxicity at 10 µM of `CC(=O)Nc1nc(C2CN(C(=O)C3CCC3)C2)cs1` and report it.
-21.9

Look up cytotoxicity at 10 µM of COc1cccc([S+]([O-])CC(=O)NCc2cc(F)cc(F)c2)c1 (centres undefined) and report it.
-0.491

Look up cytotoxicity at 10 µM of `COc1ccccc1NC(=O)c1ccc(C)n1C` and report it.
1.42

Values were extracted from ChEMBL document CHEMBL4513216.
